Test system: rodent lifetime carcinogenesis bioassay, tumor incidence TD50
Assay overview: carcinogenic potency in animals, long-term in vivo studies, CPDB compilation (AID 1745844)
Assay context: mouse; strain B6C3F1; males; by gavage; site: skin + subcutaneous tissue; lesion: neurofibrosarcoma + fibrosarcoma + sarcoma; dosed 103 weeks; study length 104 weeks
Quantity name: TD50 (mg/kg/day)
Give bare numbers, in mg/kg/day.

**Query** So what TD50 did CC1=CC(=O)CC(C)(C)C1 get with rodent lifetime carcinogenesis bioassay, tumor incidence TD50?
**Result** 1210

* * *

Test system: rodent lifetime carcinogenesis bioassay, tumor incidence TD50
Assay overview: carcinogenic potency in animals, long-term in vivo studies, CPDB compilation (AID 1745844)
Assay context: rat; strain F344/DuCrj; females; in feed; site: stomach, glandular; lesion: adenocarcinoma; dosed 104 weeks; study length 104 weeks
Consider the following compounds; for each one, report its TD50.

Oc1ccccc1O 490 mg/kg/day

We now examine a further compound.
**Query** So what TD50 did Cc1ccc(O)c(O)c1 get with rodent lifetime carcinogenesis bioassay, tumor incidence TD50?
**Result** 1090 mg/kg/day

Data provenance is PubChem BioAssay AID1745844.
